parameter_measured: glass transition temperature (°C)

compound: *Nc1ccc(Cc2ccc(NC(=O)c3ccc(C(*)=O)cc3)cc2)cc1 (repeat unit)
parameter_measured: glass transition temperature
units_text: °C
assay_result: 294.50

(1) *Oc1ccc(S(=O)(=O)c2ccc(Oc3c(C)cc(C(C)(C)c4cc(C)c(*)c(C)c4)cc3C)cc2C(O)(C(F)(F)F)C(F)(F)F)c(C(O)(C(F)(F)F)C(F)(F)F)c1 (repeat unit)
(2) *CCCOc1ccc(C(=O)OC(=O)c2ccc(O*)cc2)cc1 (repeat unit)
(3) *O[Si](*)(C)CCCOc1ccc(-c2ccc(OC(=O)CCCCC(=O)OC3CC(C)CCC3C(C)C)cc2)cc1 (repeat unit)
(4) *c1ccc(Cc2ccc(N3C(=O)c4ccc(Sc5ccc6c(c5)C(=O)N(*)C6=O)cc4C3=O)c(C(C)(C)C)c2)cc1C(C)(C)C (repeat unit)
(5) *O[Si](*)(CCCOCCOCCOCCOCCOCCOCCOCCOC)CCCOCCOCCOCCOCCOCCOCCOCCOC (repeat unit)
Sort entries by glass transition temperature from minimum to maximum value. Response field: labels, in requested order. 5, 3, 2, 1, 4
(5: -66.40 °C, 3: 43.30 °C, 2: 95.00 °C, 1: 187.00 °C, 4: 300.50 °C)

(I) *CCCCCCCCCCCCNC(=O)c1ccc(C(=O)N*)c(Oc2ccccc2)c1 (repeat unit)
(II) *Oc1c(C)cc(C2(c3cc(C)c(OC(=O)c4cccc(C(*)=O)c4)c(C)c3)CCC3CCCCC3C2)cc1C (repeat unit)
Hi there! Just curious which has the higher glass transition temperature between I and II . Reply with the label of the item you choose. II

(I) *Oc1ccc(/N=N/c2ccc(Cc3ccc(/N=N/c4ccc(OC(=O)c5ccc(C(*)=O)cc5)cc4)cc3[N+](=O)[O-])c([N+](=O)[O-])c2)cc1 (repeat unit)
(II) *CC(*)(C)C(=O)OCCCCCCOc1ccc(/N=N/c2ccncc2)cc1 (repeat unit)
(III) *c1cc(CC(=O)OCCN(CC)c2ccc(/N=N/c3ccc([N+](=O)[O-])cc3)cc2)c(*)s1 (repeat unit)
(IV) *CC(*)(CC(=O)OCCCCCCCC)C(=O)OCCCCCCCC (repeat unit)
Would you mind ranking these compounds by ascending glass transition temperature? Use the labels to give the ranking in the order requested. IV, II, III, I

(I) *C(=O)Nc1ccc(Oc2ccc(NC(=O)c3ccc4c(c3)C(=O)N(c3ccc(Cc5ccc(N6C(=O)c7ccc(*)cc7C6=O)cc5)cc3)C4=O)cc2)cc1 (repeat unit)
(II) *Oc1ccc(C(CC)(c2ccccc2)c2ccc(OC(*)=S)cc2)cc1 (repeat unit)
Hey, which is lower on measured glass transition temperature, I or II ? When you have decided, please share the label of that item. II
(II: 173.00 °C, I: 251.00 °C)

###

parameter_measured: glass transition temperature (°C)

molecule: *c1cc(CCCCCCCCCCCCCC)c(-c2sc(-c3cc4sc(*)cc4s3)cc2CCCCCCCCCCCCCC)s1 (repeat unit)
glass transition temperature, °C: 5.00
--
molecule: *c1ccc(-c2ccc(-c3cc4c5c(c(*)cc6c5c3C(=O)N(CC(CCCCCCCC)CCCCCCCCCC)C6=O)C(=O)N(CC(CCCCCCCC)CCCCCCCCCC)C4=O)s2)s1 (repeat unit)
glass transition temperature, °C: 74.00
--
molecule: *c1ccc(-c2ccc(OCCCCCCCC)c(-c3cc(*)ccc3OCCCCCCCC)c2)cc1 (repeat unit)
glass transition temperature, °C: 87.00
--
molecule: *c1ccc(-c2sc(-c3c(F)c(F)c(-c4cc(CC(CCCCCCCC)CCCCCCCCCC)c(-c5ccc(*)s5)s4)c4nsnc34)cc2CC(CCCCCCCC)CCCCCCCCCC)s1 (repeat unit)
glass transition temperature, °C: 28.00

(A) *c1ccc(-c2ccc(OCCCCCC)c(-c3cc(*)ccc3OCCCCCC)c2)cc1 (repeat unit)
(B) *c1ccc2c(c1)C(CCCCCCCC)(CCCCCCCC)c1cc(-c3sc(-c4ccc(-c5cc(CCCCCC)c(*)s5)c5nsnc45)cc3CCCCCC)ccc1-2 (repeat unit)
When A and B are compared, which has the higher number for glass transition temperature? I would appreciate it if you answered with the label of your choice. A
(A: 117.00 °C, B: 79.00 °C)

###

parameter_measured: glass transition temperature (°C)

compound: *c1cccc(Oc2ccc(P(=O)(c3ccccc3)c3ccc(Oc4ccc(N5C(=O)c6ccc(-c7ccc8c(c7)C(=O)N(*)C8=O)cc6C5=O)cc4)cc3)cc2)c1 (repeat unit)
glass transition temperature / °C: 241.00

(1) *c1ccc(-c2ccc(N3C(=O)c4ccc(-c5ccc6c(c5)C(=O)N(*)C6=O)cc4C3=O)cc2OC(F)(F)F)c(OC(F)(F)F)c1 (repeat unit)
(2) *Oc1ccc(Sc2ccc(Oc3ccc4c(c3)C(=O)N(c3cc(N5C(=O)c6ccc(*)cc6C5=O)cc(C(F)(F)F)c3)C4=O)cc2)cc1 (repeat unit)
Sorting by glass transition temperature in descending order, would 1 or 2 appear first? Indicate your choice by writing its label. 1

###

parameter_measured: glass transition temperature (°C)

molecule: *CCN(CCOC(=O)c1cccc(C(=O)O*)c1)c1ccc(/N=N/c2ccc(-c3nc4ccc([N+](=O)[O-])cc4n3CC)cc2)cc1 (repeat unit)
assay_result: 147.00
--
molecule: *CCCCC(=O)O* (repeat unit)
assay_result: -66.00
--
molecule: *CC(*)(CC(=O)OC1CCCCCC1)C(=O)OC1CCCCCC1 (repeat unit)
assay_result: 105.00

(I) *OC(=O)c1cccc(C(=O)Oc2ccc3c(c2)Oc2cc(*)ccc2C32OC(=O)c3ccccc32)c1 (repeat unit)
(II) *Oc1ccc(CC(NC(=O)CCc2ccc(OC(=O)CCCCCCC(*)=O)cc2)C(=O)OCCCCCCCC)cc1 (repeat unit)
(III) *CCCCCCn1ccc(-c2cccc(-c3ccn(*)n3)c2)n1 (repeat unit)
Order the 3 molecules from highest to lowest glass transition temperature. Sort and list the labels as requested. I, III, II
(I: 276.00 °C, III: 70.00 °C, II: 22.00 °C)

(P) *Oc1ccc(C(c2ccc(OC(*)=O)cc2)(C(F)(F)Cl)C(F)(F)Cl)cc1 (repeat unit)
(Q) *CCCCCCCCCCCCOC(=O)NCc1ccc(CNC(=O)O*)cc1 (repeat unit)
I'm curious whether P or Q has the smaller glass transition temperature number. Which is it? Could you answer with the label of the item you picked? Q
(Q: 45.00 °C, P: 183.50 °C)

###

parameter_measured: glass transition temperature (°C)

Below are worked cases with known answers.
molecule: *c1ccc2c(c1)C(=O)N(c1cc(OCCCCCCCCCCCC)cc(N3C(=O)c4ccc(C(*)(C(F)(F)F)C(F)(F)F)cc4C3=O)c1)C2=O (repeat unit)
units_text: °C
glass transition temperature: 165.00
//
molecule: *CCCCCCOC(=O)c1cc(OCCCCCCOc2ccc(/N=N/c3ccc(C#N)cc3)cc2)cc(C(=O)OCCCCCCn2c(=O)c3cc4c(=O)n(*)c(=O)c4cc3c2=O)c1 (repeat unit)
units_text: °C
glass transition temperature: 46.00
//
molecule: *Oc1ccc(NC(=O)c2cc(C(=O)Nc3ccc(Oc4ccc(C(C)(C)c5ccc(*)cc5)cc4)cc3)cc(C(C)(C)C)c2)cc1 (repeat unit)
units_text: °C
glass transition temperature: 244.00

(I) *C(=O)c1ccc2c(c1)C(=O)N(c1ccc(N(c3ccccc3)c3ccc(N4C(=O)c5ccc(*)cc5C4=O)cc3)cc1)C2=O (repeat unit)
(II) *Cc1cc(COC(=O)Nc2ccc(Cc3ccc(NC(=O)O*)cc3)cc2)cc(C(C)(C)C)c1 (repeat unit)
(III) *CCCCCCCCCCNC(=O)/C=C(\C)C(=O)N* (repeat unit)
// sort entries: glass transition temperature, high to low Return value: ordered labels per request. I, II, III

(I) *OC(=O)C(NC(=O)CCCCC(=O)NC(C(=O)OC1COC2C(*)COC12)C(C)CC)C(C)CC (repeat unit)
(II) */C=C/c1cccc(/C=C/[Si](C)(CCC(F)(F)F)c2cccc([Si](*)(C)CCC(F)(F)F)c2)c1 (repeat unit)
(III) *c1ccc(Oc2ccc(N3C(=O)c4cccc(Oc5ccc(Oc6ccc(Oc7cccc8c7C(=O)N(*)C8=O)cc6)cc5)c4C3=O)cc2)cc1 (repeat unit)
Output the entries ranked by glass transition temperature from maximum down to minimum. // list labels; follow requested order III, I, II
(III: 239.00 °C, I: 102.00 °C, II: 9.50 °C)

(a) *CC(*)(C)C(=O)OCCN(C)c1ccc(/C=C/c2ccc([N+](=O)[O-])cc2)cc1 (repeat unit)
(b) *c1ccc(C(=O)OCCCCCCCCCOC(=O)c2ccc(-c3nnc(*)s3)cc2)cc1 (repeat unit)
Input pair: a , b . Output: entry with lower glass transition temperature. Please respond with the label that marks your chosen entry. b

###

parameter_measured: glass transition temperature (°C)

Worked examples, 3 molecules total:
molecule: *Oc1ccccc1Oc1ccc(S(=O)(=O)c2ccc(*)cc2)cc1 (repeat unit)
units_text: °C
glass transition temperature: 171.00
--
molecule: *OC(=O)OCC(O)C(O)COC(=O)OC1COC2C(*)COC12 (repeat unit)
units_text: °C
glass transition temperature: 78.50
--
molecule: *CCCOC(=O)CCC(=O)O* (repeat unit)
units_text: °C
glass transition temperature: -34.70

(a) *c1ccc(-c2ccc(-c3ccc(-c4ccc(-c5ccc(*)n5CCCCCCCCCCCC)s4)s3)s2)s1 (repeat unit)
(b) *c1ccc(Oc2ccc(Oc3ccc(Oc4ccc(-c5nc6ccc(-c7ccc8nc(*)c(-c9ccccc9)nc8c7)cc6nc5-c5ccccc5)cc4)cc3)cc2)cc1 (repeat unit)
(c) *c1ccc(Oc2ccc(C3(c4ccc(Oc5ccc(N6C(=O)CC(=O)N(*)C6=S)cc5)cc4)c4ccccc4-c4ccccc43)cc2)cc1 (repeat unit)
Task field, ranking: reported glass transition temperature, descending order. Present the labels in the sequence the task asks for. b, c, a
(b: 263.00 °C, c: 175.00 °C, a: 54.00 °C)

Each recorded value in this set is attributed to the PolyMetriX glass transition set.
